pIC50: −log10 of the molar value.
Note to self: these compounds have pIC50 reported for Hepatocyte growth factor receptor (Homo sapiens, UniProt P08581) in various publications.
Output condition met for pIC50 not less than 6; output condition not met otherwise.

Reference set (4 entries):
>>> label("Cc1ccc(Sc2cnc(Nc3cccc(Br)n3)s2)cc1C(=O)N1CCN(C(=O)CN)CC1")
"condition met"
>>> label("COc1cc2c(Oc3ccc(NC(=O)c4nnn(-c5ccc(F)cc5)c4C(F)(F)F)cc3F)ccnc2cc1OCCCN1CCCC1")
"condition met"
>>> label("COc1cc2nccc(Oc3ccc(NC(=O)NCC(=O)N(C)C)nc3)c2cc1OC")
"condition not met"
>>> label("Cn1cc(-c2ccc(NC(=O)c3cn(C4CCOCC4)cc(-c4ccc(F)cc4)c3=O)cc2)c2c(N)ncnc21")
"condition met"

Next, consider the following compound.
Request: Does "CN1C(=O)/C(=N\NC(=O)c2ccc([N+](=O)[O-])cc2)c2ccccc21" have a reported pIC50 of at least 6?
Result: condition not met
